meta.source: the supplement of paper PMC9170038

tested on: K4 kissing-loop RNA reporter; assay: apparent KD of K4 kissing-loop reporter; higher = weaker reporter binding; settings: Eterna round: R107; input ligand: FMN 200 uM;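 note: bound reporter read as fluorescence of individual clusters on recovered sequencing chips by microscopy, with normalized cluster intensities fitted with a binding model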
Classification field: enter yes for apparent KD of K4 kissing-loop reporter values not below 300 nM, no for values below it.

record_sequence	class_name
CGAGUCCUGAGGAGUGAUGUUCCUCGGCCACGAGGACCGGUACGGCCGCCACUCGUUACUCGGGCUUAGUGGCUAGCACUAAGCU [Tirete]	no
GGAUAGGACAGAGGAUAUGGUAGUGAUGUUACCAAACUGGUUAUCAAUGUUAGAAAAUUGACAAAACCAGAAGGCUGUCCUAUCG [KL-XFMN-B15]	no
UCCUAGGCUCGAAAGAGCCUAGGAUAUACUCAGGAUAUCCGGAAACGGAGAAGGGAGUAACUAGUGAUGUUAGGGAUUCCCUAUU	no
GCAAGGCUACAAGGAUAUGCGCGAACCUACCGCCAAGCGGCUACCGGUGAGUCAGUGAUGUUGGCUGCAGAAGGUGUGAUUGAGC [theeternabot_sameState_KL_FMN_B_45]	yes
UGGAGUUGACGAAAAGUCAACUCCUGAGAAGGAGCGGACGAAAGUCCAGGUAGGUCGCUCACUACCAGUGAUGUUGGUACUUGAA	no
AUGCGCGUGCGAUGGAAAUCGCACGCGCAUCGAGGACCGGUACGGCCGCCACUCGCUCGCGCCGAGUGAUGUUCGGCCGGCGAAC [#2 SameState - Tryptophan_A Attempt #3 (HarryS)]	no

Reported apparent KD of K4 kissing-loop reporter at or above 300 nM? ACGGCGCUGGAACCAGUAAUGGGAAGAAUGCGAGGACCGGUACGGCCGCCACUCGCUUCCAGUGAUGUUGGAAGUGAGCCAACAA [Geerzaedre] no

Reported apparent KD of K4 kissing-loop reporter at or above 300 nM? GUUACGCAUGGAAGGAGCGCGAAUUUAAUUAGUGAGUGAUGUUCACAUAAAAUAUAUAAUACGCAGGUAGGUCGCCAUGUGUAAC [Ex Arginine B K4 1] no

Reported apparent KD of K4 kissing-loop reporter at or above 300 nM? GGAAUGCUGUAAGGAUAUCUCGGACGGUUACUCCGUUUCUCGCGUGUAAGAAUCUGAGUGAUGUUUAGAGAAGGUACGCUGGUUA [theeternabot_exclusion_KL_FMN_B_21] no

Reported apparent KD of K4 kissing-loop reporter at or above 300 nM? `AAAAUAAGCCAGUGAUGUUGGUAUGCAGAUACCAGCGACGAAAGUCGCCCUUGGCAGCUGUGGACGUACAAAAUAAGUACGUCCU` no

Reported apparent KD of K4 kissing-loop reporter at or above 300 nM? UGUCAUUGGUCGGCCGCCACUAGAAGGUCAAAGACCAUAGAGUGAUGUUCUGAGACGAAAGUCACUAGGACCGGGACCGAUGACU [TrypBS 6 #SwitchBubble #K4Middle] yes

Reported apparent KD of K4 kissing-loop reporter at or above 300 nM? CUUAAGAUAUGAGUGAUGUUCAUGUCCGAAGGAGCGUGCGAAAGCACAGGUAGGUCGCGGAUGUGAGUGAUGUUCAUGUAAGCGA [KL-XArg-A12 #analogue] no

---

tested on: MS2 coat protein; experiment: apparent KD of MS2 coat protein; designed switch direction (-1 OFF switch, 1 ON switch): 1; higher = weaker reporter binding; settings: input ligand: microRNA oligo, concentration not stated
Classification field: enter true for apparent KD of MS2 coat protein values not below 0.1 µM, false for values below it.

Please review the following examples before continuing.
record_sequence	system_name	class_name
UGCCUGAGUCGAGGAUAUUAUGGAUCCUUUAAUACAUGAGGAUCACCCAUGUAAUUAAUUAUACAUGAGAAGGUGACUCAGGCA [SSNG2/11-B2] (Eterna round: R96, puzzle: Same State NG 2)	MS2 coat protein	true
UAGUGAUUGCAAGGAUAUGCUAGUUUUUAUUUGUGUUUGAUAUCUAACAUGAGGAUCACCCAUGUGCAGAAGGUGCUUGAUUUG [JR_SSNG2_Sub077] (Eterna round: R96, puzzle: Same State NG 2)	MS2 coat protein	false
GAGAGAGGGUGAGGAUAUUUAGUGAUAAUGAUAGGAGAAGGCACAGACAUGAGGAUCACCCAUGUGGGAAUAAUCCAGAGAGAG [Parity 9 - Jieux - Same State NG 1] (Eterna round: R96, puzzle: Same State NG 1)	MS2 coat protein	false

Reported apparent KD of MS2 coat protein at or above 0.1 µM? UAGGUUGAGCAAGGAUAUCCAAGAUUGAUUCGUAUCGACAUGAGGAUCACCCAUGUCCCGAGAAGGGAGAAGGUGCGUCCAACC [Eternabot solution 30] (Eterna round: R96, puzzle: Same State NG 2) false

Reported apparent KD of MS2 coat protein at or above 0.1 µM? UGGUACAUGGGAGGAUAUGGAGUGAUGACAUGAGGAUCACCCAUGUUAUAAAUGCCGAGAGGCAACUAGAAGGCCCAUGUACCU [JL SSNG1 3.95] (Eterna round: R96, puzzle: Same State NG 2) true
